Cited source for all entries: patent US20230365711A1

Experimental target: T1, huNABA-avi-his (hybrid protein N-A1-B3-A2: N and A1 domains of human BGP, B3 domain of human CEA, A2 domain … (human, biotinylated at the avi tag (in vivo, co-transfected biotin ligase)))
T1 construct: also called NABA-avi-his reagent; biotinylated NABA
T1 chain: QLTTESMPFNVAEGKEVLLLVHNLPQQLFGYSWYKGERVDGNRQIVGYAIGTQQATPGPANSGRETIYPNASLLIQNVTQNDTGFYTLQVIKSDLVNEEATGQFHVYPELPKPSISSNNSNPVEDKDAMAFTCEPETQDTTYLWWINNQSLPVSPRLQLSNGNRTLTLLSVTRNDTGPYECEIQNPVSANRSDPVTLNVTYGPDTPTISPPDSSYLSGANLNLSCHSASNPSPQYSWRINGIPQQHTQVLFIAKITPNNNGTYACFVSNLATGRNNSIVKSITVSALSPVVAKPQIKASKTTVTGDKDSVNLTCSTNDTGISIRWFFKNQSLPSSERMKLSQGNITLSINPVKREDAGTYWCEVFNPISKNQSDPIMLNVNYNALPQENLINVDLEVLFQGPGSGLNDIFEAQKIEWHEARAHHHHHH
Assay procedure: Proteon SPR, antibody analyte on biotinylated NABA (Neutravidin chip)
Entries and their pKd
pKd here is simply -log10 of the concentration when that concentration is written in mol/L.

Please look up its pKd: anti-CEA antibody with heavy chain CH1A1D and light chain 2F1 (antibody, V domains shown) VH: QVQLVQSGAEVKKPGETVKISCKASGYTFTEFGMNWVRQAPGQGLEWMGWINTKTGEATYVEEFKGRVTMTTDTSTSTAYMELRSLRSDDTAVYYCARWDFYDYVEAMDYWGQGTTVTVSS VL: DIQMTQSPSSLSASVGDRVTITCKASAAVGTYVAWYQQKPGKAPKLLIYSASYRKRGVPSRFSGSGSGTDFTLTISSLQPEDFATYYCHQYYTYPLFTFGQGTKLEIKR
8.03

How about this binder: anti-CEA antibody with heavy chain CH1A1E and light chain 2F1 (antibody, V domains shown) VH: QVQLVQSGAEVKKPGASVKVSCKASGYTFTEFGMNWVRQAPGQGLEWMGWINTKTGEATYVEEFKGRFTMTTDTSTSTAYMELRSLRSDDTAVYYCARWDFYDYVEAMDYWGQGTTVTVSS VL: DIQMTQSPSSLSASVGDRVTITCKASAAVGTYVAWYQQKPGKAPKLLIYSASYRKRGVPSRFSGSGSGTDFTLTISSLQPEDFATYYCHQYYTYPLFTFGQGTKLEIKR
7.70

Now give it for anti-CEA antibody with heavy chain CH1A1G and light chain 2F1 (antibody, V domains shown) VH: QVQLVQSGAEVKKPGASVKVSCKASGYTFTEFGMNWVRQAPGQGLEWMGWINTKTGEATYVEEFKGRVTMTTDTSTSTAYMEIRSLRSDDTAVYYCARWDFYDYVEAMDYWGQGTTVTVSS VL: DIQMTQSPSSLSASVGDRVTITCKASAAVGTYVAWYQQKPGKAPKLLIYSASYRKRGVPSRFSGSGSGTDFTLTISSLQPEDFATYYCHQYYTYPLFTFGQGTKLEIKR too.
8.21

Would you kindly repeat that for anti-CEA antibody with heavy chain CH1A1B and light chain 2F1 (antibody, V domains shown) VH: QVKLQQSGAEVKKPGASVKVSCKASGYTFTEFGMNWVRQAPGQGLEWMGWINTKTGEATYVEEFKGRVTMTTDTSTSTAYMELRSLRSDDTAVYYCARWDFYDYVEAMDYWGQGTTVTVSS VL: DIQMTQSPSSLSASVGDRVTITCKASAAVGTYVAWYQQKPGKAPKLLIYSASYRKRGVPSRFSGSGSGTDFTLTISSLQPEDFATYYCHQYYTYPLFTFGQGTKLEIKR ?
8.05
